Species: Bos taurus
Assay: Displacement of ethidium bromide from calf thymus DNA by fluorescence binding assay
Measured log Ka by item
recorded_endpoint: log Ka

| compound | recorded_endpoint | value_observed |
| --- | --- | --- |
| CCN(CC)CC(=O)NN1C(=O)c2cccc3cccc(c23)C1=O | log Ka | 5.6 |
| CN1CCN(CCn2c3ccccc3c3nc4ccccc4nc32)CC1 | log Ka | 5.87 |
| c1ccc2nc3c(nc2c1)c1ccccc1n3CCNCCN1CCOCC1 | log Ka | 6.17 |
| CCN(CC)CCOC(=O)Cn1c2ccccc2c2nc3ccccc3nc21 | log Ka | 5.42 |
| CCN(CC)CCCNCCn1c2ccccc2c2nc3ccccc3nc21 | log Ka | 6.87 |
| CC1CCN(CCn2c3ccccc3c3nc4ccccc4nc32)CC1 | log Ka | 5.98 |
| O=C(Cn1c2ccccc2c2nc3ccccc3nc21)NCCCN1CCOCC1 | log Ka | 5.32 |
| CN(C)CCCN1C(=O)c2cccc3cccc(c23)C1=O | log Ka | 7.07 |
| CCN(CC)CCCCCn1c2ccccc2c2nc3ccccc3nc21 | log Ka | 5.61 |
| CN(C)CCCCCn1c2ccccc2c2nc3ccccc3nc21 | log Ka | 5.66 |
| CCN(CC)CCOCCn1c2ccccc2c2nc3ccccc3nc21 | log Ka | 5.26 |
| c1ccc2nc3c(nc2c1)c1ccccc1n3CCN1CCOCC1 | log Ka | 5.89 |
| O=C(Cn1c2ccccc2c2nc3ccccc3nc21)OCCN1CCCCC1 | log Ka | 5.39 |
| c1ccc2nc3c(nc2c1)c1ccccc1n3CCCCN1CCCCC1 | log Ka | 5.93 |
| CCN(CC)CCCC(C)N1C(=O)c2cccc3cccc(c23)C1=O (stereo unspecified) | log Ka | 5.5 |
| O=C(CN1CCOCC1)N/N=C1/C(=O)Nc2ccc3ccccc3c21 | log Ka | 6.76 |
| O=C(Cn1c2ccccc2c2nc3ccccc3nc21)NCCN1CCOCC1 | log Ka | 5.13 |
| CN1CCN(CC(=O)N/N=C2\C(=O)Nc3ccc4ccccc4c32)CC1 | log Ka | 5.99 |
| CN(C)CCCNC(=O)CCCCCN1C(=O)c2cccc3cccc(c23)C1=O | log Ka | 6.1 |
| CCN(CC)CCn1c2ccc3ccccc3c2c2nc3ccccc3nc21 | log Ka | 6.79 |
| CCN(CC)CCNC(=O)CCCCCN1C(=O)c2cccc3cccc(c23)C1=O | log Ka | 5.49 |
| CNCCCN1C(=O)c2cccc3cccc(c23)C1=O | log Ka | 5.57 |
| CCN(CC)CCNC(=O)CCCn1c2ccccc2c2nc3ccccc3nc21 | log Ka | 5.25 |
| CC1CCN(CCC(=O)N/N=C2\C(=O)Nc3ccccc32)CC1 | log Ka | 5.91 |
| O=C(CN1C(=O)c2cccc3cccc(c23)C1=O)NCCN1CCOCC1 | log Ka | 5.68 |
| O=C(CCCn1c2ccccc2c2nc3ccccc3nc21)NCCCN1CCOCC1 | log Ka | 5.11 |
| c1ccc2nc3c(nc2c1)c1ccccc1n3CCCCN1CCOCC1 | log Ka | 5.94 |
| c1ccc2c(c1)ccc1c2c2nc3ccccc3nc2n1CCN1CCCCC1 | log Ka | 6.61 |
| O=C(CCCn1c2ccccc2c2nc3ccccc3nc21)NCCN1CCNCC1 | log Ka | 4.97 |
| c1ccc2nc3c(nc2c1)c1ccccc1n3CCOCCN1CCOCC1 | log Ka | 5.32 |
| CC1CCN(CC(=O)NN2C(=O)c3cccc4cccc(c34)C2=O)CC1 | log Ka | 5.73 |
| O=C1c2cccc3cccc(c23)C(=O)N1NCCN1CCOCC1 | log Ka | 5.38 |
| c1ccc2c(c1)ccc1c2c2nc3ccccc3nc2n1CCN1CCOCC1 | log Ka | 6.94 |
| CC1CCN(CC(=O)N/N=C2/C(=O)Nc3ccc4ccccc4c32)CC1 | log Ka | 7.11 |
| CCN(CC)CC(=O)N/N=C1/C(=O)Nc2ccc3ccccc3c21 | log Ka | 6.3 |
| O=C(CN1CCCCCC1)NN1C(=O)c2cccc3cccc(c23)C1=O | log Ka | 5.53 |
| O=C(Cn1c2ccccc2c2nc3ccccc3nc21)OCCCN1CCOCC1 | log Ka | 5.14 |
| CCN(CC)CCNC(=O)CCN1C(=O)c2cccc3cccc(c23)C1=O | log Ka | 5.85 |
| O=C(Cn1c2ccccc2c2nc3ccccc3nc21)OCCN1CCOCC1 | log Ka | 5.18 |
| CCN(CC)CCCNC(=O)CCN1C(=O)c2cccc3cccc(c23)C1=O | log Ka | 5.79 |
| CCN(CC)CCCOC(=O)Cn1c2ccccc2c2nc3ccccc3nc21 | log Ka | 5.17 |
| CN(C)CCCNC(=O)c1cc2c(ccc3ccccc32)o1 | log Ka | 5.48 |
| O=C(CCN1C(=O)c2cccc3cccc(c23)C1=O)NCCN1CCOCC1 | log Ka | 5.78 |
| c1ccc2nc3c(nc2c1)c1ccccc1n3CCN1CCCC1 | log Ka | 6.05 |
| CCN(CC)CCNC(=O)CN1C(=O)c2cccc3cccc(c23)C1=O | log Ka | 5.54 |
| CCN(CC)CCN1C(=O)/C(=N/NC(=O)CCN2CCCCCC2)c2ccccc21 | log Ka | 6.03 |
